# tested.system: ZNF721 DBD2 (Homo sapiens, UniProt Q8TF20-2 395-923)
# Sequence (Q8TF20 383-911): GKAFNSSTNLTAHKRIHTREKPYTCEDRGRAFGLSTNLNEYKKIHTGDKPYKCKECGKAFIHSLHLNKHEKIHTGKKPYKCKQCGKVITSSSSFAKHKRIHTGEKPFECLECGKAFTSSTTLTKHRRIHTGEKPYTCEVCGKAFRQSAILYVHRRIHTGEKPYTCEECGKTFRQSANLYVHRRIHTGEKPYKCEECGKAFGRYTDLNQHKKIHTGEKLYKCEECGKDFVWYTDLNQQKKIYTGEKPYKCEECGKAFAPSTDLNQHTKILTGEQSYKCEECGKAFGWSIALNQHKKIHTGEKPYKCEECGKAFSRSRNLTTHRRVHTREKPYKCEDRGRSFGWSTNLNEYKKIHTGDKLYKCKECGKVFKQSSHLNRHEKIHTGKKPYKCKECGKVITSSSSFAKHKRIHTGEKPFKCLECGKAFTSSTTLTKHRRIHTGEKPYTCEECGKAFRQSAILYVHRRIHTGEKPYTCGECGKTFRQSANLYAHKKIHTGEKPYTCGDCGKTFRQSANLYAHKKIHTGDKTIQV
# test.protocol: HT-SELEX; 20 mM HEPES pH 7, 140 mM KCl, 5 mM NaCl, 1 mM K2HPO4, 2 mM MgSO4, 100 uM EGTA, ZnSO4, 0.1% Tween20; room temperature, 1 h; high values mean tight binding
# condition.notes: protein: ivt; tags: eGFP (N-terminal); dsDNA, one strand shown
assay.readout: binding signal

{"sequence.text": "CCCCACGCCC", "test.value": "0.00395 relative 10-mer count"}
{"sequence.text": "CCACCCCCCC", "test.value": "0.00336 relative 10-mer count"}
{"sequence.text": "ACTGTTTTTC", "test.value": "0.17 relative 10-mer count"}
{"sequence.text": "AACAGCGTCT", "test.value": "0.347 relative 10-mer count"}
{"sequence.text": "CACCCCCTCC", "test.value": "0.00719 relative 10-mer count"}
{"sequence.text": "CGCTTTTTTC", "test.value": "0.0303 relative 10-mer count"}
{"sequence.text": "GAAAAAAACA", "test.value": "0.165 relative 10-mer count"}
{"sequence.text": "ACCCCCACAC", "test.value": "0.00527 relative 10-mer count"}
{"sequence.text": "AAGCAGCGTA", "test.value": "0.201 relative 10-mer count"}
{"sequence.text": "ACCACCCTCC", "test.value": "0.00324 relative 10-mer count"}
{"sequence.text": "CCCACACCCA", "test.value": "0.00455 relative 10-mer count"}
{"sequence.text": "ACCCGCCCCA", "test.value": "0.0012 relative 10-mer count"}
{"sequence.text": "CTCCCACCAC", "test.value": "0.00599 relative 10-mer count"}
{"sequence.text": "CCCACCCCCA", "test.value": "0.00647 relative 10-mer count"}
{"sequence.text": "CCCACCCACA", "test.value": "0.00959 relative 10-mer count"}
{"sequence.text": "CCGTCCCACC", "test.value": "0.00312 relative 10-mer count"}
{"sequence.text": "CACCCCCAAC", "test.value": "0.0114 relative 10-mer count"}
{"sequence.text": "CGAAAAAACA", "test.value": "0.161 relative 10-mer count"}
{"sequence.text": "AAAACAGCGT", "test.value": "0.975 relative 10-mer count"}
{"sequence.text": "CAGCCCCCCC", "test.value": "0.0267 relative 10-mer count"}
{"sequence.text": "CCCGACCACC", "test.value": "0.00372 relative 10-mer count"}
{"sequence.text": "CCGCCCACCC", "test.value": "0.0018 relative 10-mer count"}
{"sequence.text": "CCCACCGTCC", "test.value": "0.00395 relative 10-mer count"}
{"sequence.text": "ATAGCTTCAT", "test.value": "0.00288 relative 10-mer count"}
{"sequence.text": "CCCCCACGCC", "test.value": "0.00419 relative 10-mer count"}
{"sequence.text": "TAAAAAAACA", "test.value": "0.134 relative 10-mer count"}
{"sequence.text": "AGCGTACCCT", "test.value": "0.165 relative 10-mer count"}
{"sequence.text": "CCAACCCACC", "test.value": "0.00395 relative 10-mer count"}
{"sequence.text": "GTGGTGGGGA", "test.value": "0.00443 relative 10-mer count"}
{"sequence.text": "ACCCCACCTC", "test.value": "0.0024 relative 10-mer count"}
{"sequence.text": "CCCACCCACG", "test.value": "0.00551 relative 10-mer count"}
{"sequence.text": "GCCCCCCCAC", "test.value": "0.00803 relative 10-mer count"}
{"sequence.text": "ACCCCCCGCC", "test.value": "0.00384 relative 10-mer count"}
{"sequence.text": "CACCACCCCC", "test.value": "0.0024 relative 10-mer count"}
{"sequence.text": "ACCCCGCCAC", "test.value": "0.00264 relative 10-mer count"}
{"sequence.text": "CCCACCCCAC", "test.value": "0.00863 relative 10-mer count"}
{"sequence.text": "CCCCCTCCCG", "test.value": "0.00336 relative 10-mer count"}
{"sequence.text": "CCCCCACCCC", "test.value": "0.00276 relative 10-mer count"}
{"sequence.text": "AAAAAAAGAG", "test.value": "0.0578 relative 10-mer count"}
{"sequence.text": "CCCCTCCTCC", "test.value": "0.00515 relative 10-mer count"}
{"sequence.text": "GCCACCACCC", "test.value": "0.00204 relative 10-mer count"}
{"sequence.text": "CACCGTCCCC", "test.value": "0.00252 relative 10-mer count"}
{"sequence.text": "CCCCCGCACC", "test.value": "0.00419 relative 10-mer count"}
{"sequence.text": "CCCACCCCTC", "test.value": "0.00527 relative 10-mer count"}
{"sequence.text": "AAAAGCAGCC", "test.value": "0.112 relative 10-mer count"}
{"sequence.text": "CAACCCACCC", "test.value": "0.00623 relative 10-mer count"}
{"sequence.text": "GCCCCCCGCC", "test.value": "0.003 relative 10-mer count"}
{"sequence.text": "AAAAAAAGCT", "test.value": "0.00923 relative 10-mer count"}
{"sequence.text": "GCTTCTTTCC", "test.value": "0.00156 relative 10-mer count"}
{"sequence.text": "GCACCCACCC", "test.value": "0.00479 relative 10-mer count"}

* * *

# tested.system: ZNF721 DBD1 (Homo sapiens, UniProt Q8TF20-2 29-461)
# Sequence (Q8TF20 17-449): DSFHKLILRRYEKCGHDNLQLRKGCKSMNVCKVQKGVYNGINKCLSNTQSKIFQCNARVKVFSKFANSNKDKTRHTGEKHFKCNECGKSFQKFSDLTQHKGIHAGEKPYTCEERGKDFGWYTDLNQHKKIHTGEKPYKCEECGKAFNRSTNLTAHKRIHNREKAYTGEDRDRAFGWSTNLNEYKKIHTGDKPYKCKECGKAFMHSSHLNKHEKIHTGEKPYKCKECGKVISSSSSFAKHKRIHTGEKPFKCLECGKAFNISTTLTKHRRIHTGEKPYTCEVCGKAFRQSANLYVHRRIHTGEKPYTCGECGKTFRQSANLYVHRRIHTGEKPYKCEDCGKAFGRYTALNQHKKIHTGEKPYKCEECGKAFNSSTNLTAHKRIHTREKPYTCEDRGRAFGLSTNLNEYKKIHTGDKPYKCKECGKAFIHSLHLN
# test.protocol: HT-SELEX; 20 mM HEPES pH 7, 140 mM KCl, 5 mM NaCl, 1 mM K2HPO4, 2 mM MgSO4, 100 uM EGTA, ZnSO4, 0.1% Tween20; room temperature, 1 h; high values mean tight binding
# condition.notes: protein: ivt; tags: eGFP (N-terminal); dsDNA, one strand shown

{"sequence.text": "CTCCCACCCC", "binding signal": "0.0128 relative 10-mer count"}
{"sequence.text": "ACCCACCCAC", "binding signal": "0.00922 relative 10-mer count"}
{"sequence.text": "CAAACAAGCA", "binding signal": "0.00362 relative 10-mer count"}
{"sequence.text": "ATCCCACCCC", "binding signal": "0.00573 relative 10-mer count"}
{"sequence.text": "CCCCCACCAA", "binding signal": "0.00431 relative 10-mer count"}
{"sequence.text": "AGCATATCCA", "binding signal": "0.0108 relative 10-mer count"}

* * *

A collection of sequences and their measured binding signal
# tested.system: ZNF721 full-length (Homo sapiens, UniProt Q8TF20-2 1-923)
# Sequence (Q8TF20 other isoform, or with tags, fused parts or gaps): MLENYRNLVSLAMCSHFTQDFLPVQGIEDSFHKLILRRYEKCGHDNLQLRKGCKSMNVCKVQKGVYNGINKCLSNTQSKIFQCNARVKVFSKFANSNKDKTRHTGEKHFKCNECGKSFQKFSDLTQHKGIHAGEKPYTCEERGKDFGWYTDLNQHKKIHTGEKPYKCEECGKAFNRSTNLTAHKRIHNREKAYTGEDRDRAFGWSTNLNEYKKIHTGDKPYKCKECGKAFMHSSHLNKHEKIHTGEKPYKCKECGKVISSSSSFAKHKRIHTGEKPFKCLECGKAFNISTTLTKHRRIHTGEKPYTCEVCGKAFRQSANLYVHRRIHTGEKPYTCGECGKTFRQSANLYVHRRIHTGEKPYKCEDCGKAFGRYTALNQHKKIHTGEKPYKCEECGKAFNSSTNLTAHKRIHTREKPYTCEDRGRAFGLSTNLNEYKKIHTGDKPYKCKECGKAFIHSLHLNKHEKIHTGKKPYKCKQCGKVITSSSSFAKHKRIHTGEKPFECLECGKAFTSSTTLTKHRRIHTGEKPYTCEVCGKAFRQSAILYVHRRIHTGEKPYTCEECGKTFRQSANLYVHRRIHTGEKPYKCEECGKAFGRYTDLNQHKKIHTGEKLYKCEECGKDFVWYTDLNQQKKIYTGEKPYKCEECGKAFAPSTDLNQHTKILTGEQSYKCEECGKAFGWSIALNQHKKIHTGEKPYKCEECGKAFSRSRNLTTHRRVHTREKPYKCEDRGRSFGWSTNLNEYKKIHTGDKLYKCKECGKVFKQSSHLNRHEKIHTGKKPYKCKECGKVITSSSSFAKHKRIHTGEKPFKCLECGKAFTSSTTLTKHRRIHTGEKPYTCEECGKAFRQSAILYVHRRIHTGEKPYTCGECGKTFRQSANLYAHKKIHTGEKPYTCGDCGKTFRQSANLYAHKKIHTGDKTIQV
# test.protocol: HT-SELEX; 20 mM HEPES pH 7, 140 mM KCl, 5 mM NaCl, 1 mM K2HPO4, 2 mM MgSO4, 100 uM EGTA, ZnSO4, 0.1% Tween20; room temperature, 1 h; high values mean tight binding
# condition.notes: protein: ivt; tags: eGFP (N-terminal); dsDNA, one strand shown

{"sequence.text": "CCACAAAAAA", "unit.symbol": "relative 10-mer count", "binding signal": 0.125}
{"sequence.text": "ACCCCAACCC", "unit.symbol": "relative 10-mer count", "binding signal": 0.128}
{"sequence.text": "AAAAAAGCTA", "unit.symbol": "relative 10-mer count", "binding signal": 0.489}
{"sequence.text": "CCCAAAAAAA", "unit.symbol": "relative 10-mer count", "binding signal": 0.149}
{"sequence.text": "CCACGCCACC", "unit.symbol": "relative 10-mer count", "binding signal": 0.105}
{"sequence.text": "CCCACCGACC", "unit.symbol": "relative 10-mer count", "binding signal": 0.127}
{"sequence.text": "CCACCCCGCC", "unit.symbol": "relative 10-mer count", "binding signal": 0.263}
{"sequence.text": "CCACCCCACC", "unit.symbol": "relative 10-mer count", "binding signal": 0.411}
{"sequence.text": "CTTCATACCC", "unit.symbol": "relative 10-mer count", "binding signal": 0.221}
{"sequence.text": "GGGGCGGGGA", "unit.symbol": "relative 10-mer count", "binding signal": 0.131}
{"sequence.text": "CCCCCGCCCA", "unit.symbol": "relative 10-mer count", "binding signal": 0.167}
{"sequence.text": "CACCCACCCC", "unit.symbol": "relative 10-mer count", "binding signal": 0.325}
{"sequence.text": "ACCCCACACC", "unit.symbol": "relative 10-mer count", "binding signal": 0.14}
{"sequence.text": "CCCCCAACCA", "unit.symbol": "relative 10-mer count", "binding signal": 0.118}
{"sequence.text": "CGCCCCACCC", "unit.symbol": "relative 10-mer count", "binding signal": 0.236}
{"sequence.text": "GCCCCTCCCC", "unit.symbol": "relative 10-mer count", "binding signal": 0.144}
{"sequence.text": "GCTTCTTTCC", "unit.symbol": "relative 10-mer count", "binding signal": 0.103}
{"sequence.text": "CACCCCATCC", "unit.symbol": "relative 10-mer count", "binding signal": 0.11}
{"sequence.text": "CGCTTTTTTC", "unit.symbol": "relative 10-mer count", "binding signal": 0.258}
{"sequence.text": "CCCACCTCCC", "unit.symbol": "relative 10-mer count", "binding signal": 0.339}
{"sequence.text": "AGGGGGGTGG", "unit.symbol": "relative 10-mer count", "binding signal": 0.157}
{"sequence.text": "CACCGCCACC", "unit.symbol": "relative 10-mer count", "binding signal": 0.117}
{"sequence.text": "CCCCTCCCAC", "unit.symbol": "relative 10-mer count", "binding signal": 0.218}
{"sequence.text": "CCCTGCCCCC", "unit.symbol": "relative 10-mer count", "binding signal": 0.166}
{"sequence.text": "CACCCCCCCG", "unit.symbol": "relative 10-mer count", "binding signal": 0.131}
{"sequence.text": "GAAAAAAAGC", "unit.symbol": "relative 10-mer count", "binding signal": 0.29}
{"sequence.text": "AACAAGCAGT", "unit.symbol": "relative 10-mer count", "binding signal": 0.128}
{"sequence.text": "CAAAAAAAGC", "unit.symbol": "relative 10-mer count", "binding signal": 0.202}
{"sequence.text": "CCCCCTCCCC", "unit.symbol": "relative 10-mer count", "binding signal": 0.331}
{"sequence.text": "CCCCCTACCC", "unit.symbol": "relative 10-mer count", "binding signal": 0.155}
{"sequence.text": "CCACCCAACC", "unit.symbol": "relative 10-mer count", "binding signal": 0.151}
{"sequence.text": "CCACCCCCCA", "unit.symbol": "relative 10-mer count", "binding signal": 0.272}
{"sequence.text": "AAAAAAGCGG", "unit.symbol": "relative 10-mer count", "binding signal": 0.11}
{"sequence.text": "CCCCACCCAA", "unit.symbol": "relative 10-mer count", "binding signal": 0.134}
{"sequence.text": "AGCTTCATAC", "unit.symbol": "relative 10-mer count", "binding signal": 0.196}
{"sequence.text": "CCACCCCACG", "unit.symbol": "relative 10-mer count", "binding signal": 0.131}
{"sequence.text": "AACGCTGCTT", "unit.symbol": "relative 10-mer count", "binding signal": 0.207}
{"sequence.text": "GCCCCCCTCC", "unit.symbol": "relative 10-mer count", "binding signal": 0.128}
{"sequence.text": "AAAGCAGGGT", "unit.symbol": "relative 10-mer count", "binding signal": 0.272}
{"sequence.text": "AAGGGGTGGG", "unit.symbol": "relative 10-mer count", "binding signal": 0.102}
{"sequence.text": "CCCCACCCGC", "unit.symbol": "relative 10-mer count", "binding signal": 0.186}
{"sequence.text": "AACCCCCACC", "unit.symbol": "relative 10-mer count", "binding signal": 0.108}
{"sequence.text": "ACCACCCCAC", "unit.symbol": "relative 10-mer count", "binding signal": 0.201}
{"sequence.text": "CCCTGTTTTC", "unit.symbol": "relative 10-mer count", "binding signal": 0.162}
{"sequence.text": "CGCCACCCAC", "unit.symbol": "relative 10-mer count", "binding signal": 0.123}
{"sequence.text": "CCCCAACACC", "unit.symbol": "relative 10-mer count", "binding signal": 0.114}
{"sequence.text": "AGGGGGAGGG", "unit.symbol": "relative 10-mer count", "binding signal": 0.145}
{"sequence.text": "AAGAAAACAG", "unit.symbol": "relative 10-mer count", "binding signal": 0.177}
{"sequence.text": "AAAAACAGAG", "unit.symbol": "relative 10-mer count", "binding signal": 0.212}
{"sequence.text": "ACCCCACCAC", "unit.symbol": "relative 10-mer count", "binding signal": 0.199}
{"sequence.text": "GTGGGGTGGA", "unit.symbol": "relative 10-mer count", "binding signal": 0.103}
{"sequence.text": "CCCCTCTCCC", "unit.symbol": "relative 10-mer count", "binding signal": 0.107}
{"sequence.text": "CGCCCTCCCC", "unit.symbol": "relative 10-mer count", "binding signal": 0.172}
{"sequence.text": "AAACAGCAGT", "unit.symbol": "relative 10-mer count", "binding signal": 0.106}
{"sequence.text": "CACAAAAAAA", "unit.symbol": "relative 10-mer count", "binding signal": 0.181}
{"sequence.text": "GGGGAGGGGA", "unit.symbol": "relative 10-mer count", "binding signal": 0.125}
{"sequence.text": "CCCCCCAACC", "unit.symbol": "relative 10-mer count", "binding signal": 0.194}
{"sequence.text": "CAGCCCCCCC", "unit.symbol": "relative 10-mer count", "binding signal": 0.103}
{"sequence.text": "ACAGCGTACC", "unit.symbol": "relative 10-mer count", "binding signal": 0.193}
{"sequence.text": "AGGAAAAAAG", "unit.symbol": "relative 10-mer count", "binding signal": 0.114}
{"sequence.text": "CCACCGACCC", "unit.symbol": "relative 10-mer count", "binding signal": 0.107}
{"sequence.text": "ACAGCATGAC", "unit.symbol": "relative 10-mer count", "binding signal": 0.209}

Where do these numbers come from? They come from paper PMC13541613.
